Values from PubChem BioAssay

assay summary: PSAC antagonists in infected red cells, primary screen, cell-based, P. falciparum Indochina, OD700, 1 h (AID 1154)
setup conditions: P. falciparum Indochina infected RBC osmotic lysis, higher = more signal, called active from +8 up or from −8 down
reported endpoint: z-score

> print(dat)
                                   compound  reported.endpoint  number
1  C=CC[C@]1(C(=O)O)COC(c2ccc(OCCCO)cc2)=N1            z-score    2.23
2  CN(C)c1ccc(C(O)C2C=CC3C(=O)N(c4ccccc4)C(=O)C3N2Nc2ccc([N+](=O)[O-])cc2)cc1 (stereo not given)            z-score     4.9
3  CCCCCCc1nc(C2CC2)cc2c1[Si](C(C)C)(C(C)C)OC2            z-score   0.834
4   OCC1CC(c2ccccc2)=NO1 (stereo not given)            z-score    5.51
5  O=C1OCC=C[C@H]2OC34C=CCN(c5ccc(Cl)cc5)C(=O)[C@H]3N(CCO)C(=O)[C@@H]4[C@@H]12 (stereo not given in full)            z-score   0.506
